Target: T1, his-tagged-DLL3 antigen (purified human/cynomolgus/dog/mouse/rat or minipig DLL3 antigen) (human/cynomolgus/dog/mouse/rat or …)
T1 construct: Antigen loaded on nickel-NTA tips for biolayer interferometry; also called Delta-like protein 3
T1 sequence (Q9NYJ7 whole entry): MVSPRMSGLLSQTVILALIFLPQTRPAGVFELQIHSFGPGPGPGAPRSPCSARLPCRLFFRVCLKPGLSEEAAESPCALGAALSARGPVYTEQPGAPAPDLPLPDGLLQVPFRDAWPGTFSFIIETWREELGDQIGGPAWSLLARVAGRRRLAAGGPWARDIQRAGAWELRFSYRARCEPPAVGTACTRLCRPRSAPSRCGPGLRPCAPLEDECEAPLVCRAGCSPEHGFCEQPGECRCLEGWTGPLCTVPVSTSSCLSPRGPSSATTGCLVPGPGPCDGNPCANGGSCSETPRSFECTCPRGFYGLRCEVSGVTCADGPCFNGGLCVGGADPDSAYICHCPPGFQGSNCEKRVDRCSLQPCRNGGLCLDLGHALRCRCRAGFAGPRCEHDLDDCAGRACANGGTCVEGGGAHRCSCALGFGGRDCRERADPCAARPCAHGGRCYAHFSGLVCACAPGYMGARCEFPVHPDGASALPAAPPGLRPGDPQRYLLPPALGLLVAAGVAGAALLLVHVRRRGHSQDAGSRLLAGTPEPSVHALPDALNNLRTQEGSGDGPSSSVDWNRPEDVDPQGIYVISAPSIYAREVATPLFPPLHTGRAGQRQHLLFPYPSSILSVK
Test: biolayer interferometry (Octet BLItz), his-tagged DLL3 on nickel-NTA tip, minibody in solution
measurementLabel: kon (M⁻¹ s⁻¹)
Give bare numbers, in M⁻¹ s⁻¹.

binder	dataValue
IAB57M1-1 (other, Parental minibody; also called parental minibody IAB57M1-1) EIVMTQSPATLSVSPGERATLSCKASQSVSNDVVWYQQKPGQAPRLLIYYASNRYTGIPARFSGSGSGTEFTLTISSLQSEDFAVYYCQQDYTSPWTFGQGTKLEIKGSTSGGGSGGGSGGGGSSQVQLVQSGAEVKKPGASVKVSCKASGYTFTNYGMNWVRQAPGQGLEWMGWINTYTGEPTYADDFKGRVTMTTDTSTSTAYMELRSLRSDDTAVYYCARIGDSSPSDYWGQGTLVTVSSEPKSSDKTHTCPPCPPCGGGSSGGGSGGQPREPQVYTLPPSREEMTKNQVSLTCLVKGFYPSDIAVEWESNGQPENNYKTTPPVLDSDGSFFLYSKLTVDKSRWQQGNVFSCSVMHEALHNHYTQKSLSLSPG	838000

Can you share its kon? I mean this binder: IAB57M1-3 (other, Signal peptide left out) EIVMTQSPATLSVSPGERATLSCKASQSVSNDVVWYQQKPGQAPRLLIYDASNRYTGIPARFSGSGSGTEFTLTISSLQSEDFAVYYCQQDYTSPWTFGQGTKLEIKGSTSGGGSGGGSGGGGSSQVQLVQSGAEVKKPGASVKVSCKASGYTFTNYGMNWVRQAPGQGLEWMGWINTYTGEPTYADDFKGRVTMTTDTSTSTAYMELRSLRSDDTAVYYCARIGDSSPSDYWGQGTLVTVSSEPKSSDKTHTCPPCPPCGGGSSGGGSGGQPREPQVYTLPPSREEMTKNQVSLTCLVKGFYPSDIAVEWESNGQPENNYKTTPPVLDSDGSFFLYSKLTVDKSRWQQGNVFSCSVMHEALHNHYTQKSLSLSPG 599000
